Data credit: patent US7538073B2

Here, each record is paired with measured chromatographic logP data.
Experiment: logP by HPLC, reversed-phase column (C 18), EEC Directive 79/831 Annex V.A8
Format: physicochemical
Details: reversed-phase HPLC column (C 18), acidic range pH 2.3, 0.1% aqueous phosphoric acid/acetonitrile gradient, 43° C.

The following molecules have reported results that may help.
# molecule, endpoint.name, reported.measurement
data = [
    ("Cc1nn(C)c(F)c1C(=O)Nc1ccc(Cl)cc1C(C)C(C)C (stereo not shown)", "chromatographic logP", 3.43),
    ("CCCC(C)CC(C)c1ccccc1NC(=O)c1c(C)nn(C)c1F (stereo not shown)", "chromatographic logP", 4.11),
    ("CCCCCC(C)c1ccccc1NC(=O)c1c(C)nn(C)c1F (stereo not shown)", "chromatographic logP", 3.83),
    ("Cc1nn(C)c(F)c1C(=O)Nc1ccccc1C(C)CC1CCCC1 (stereo not shown)", "chromatographic logP", 3.82),
    ("Cc1nn(C)c(F)c1C(=O)Nc1ccc(F)cc1C(C)CC(C)C (stereo not shown)", "chromatographic logP", 3.32),
]

(Q) Return chromatographic logP for the following molecule: C=C(c1ccccc1NC(=O)c1c(C)nn(C)c1F)C1CCCCC1
(A) 4.36

(Q) Report chromatographic logP for Cc1nn(C)c(F)c1C(=O)Nc1ccc(Cl)cc1C(C)(O)C(C)C (stereo not shown)
(A) 2.99

(Q) Tell me measured chromatographic logP for Cc1nn(C)c(F)c1C(=O)Nc1ccccc1C#CCC1CCCCC1 please.
(A) 5.08

(Q) Answer with the recorded chromatographic logP of Cc1nn(C)c(F)c1C(=O)Nc1ccccc1C(C)CCC(C)C (stereo not shown) only.
(A) 3.76

(Q) Note down chromatographic logP recorded for Cc1nn(C)c(F)c1C(=O)Nc1ccccc1C(C)CCCC(C)C (stereo not shown)
(A) 4.22

(Q) Specify reported chromatographic logP for the molecule shown: CCC(C)C(C)c1ccccc1NC(=O)c1c(C)nn(C)c1F (stereo not shown)
(A) 3.28

(Q) Read the entry C=C(c1cc(Cl)ccc1NC(=O)c1c(C)nn(C)c1F)C(C)C and write its reported chromatographic logP.
(A) 4.11

(Q) Given the molecule CCC(c1ccccc1NC(=O)c1c(C)nn(C)c1F)C(C)C (stereo not shown) , write its reported chromatographic logP.
(A) 3.37

(Q) Find the measured chromatographic logP of Cc1nn(C)c(F)c1C(=O)Nc1ccccc1C(C)C(C)C (stereo not shown) and report it.
(A) 2.92

(Q) Supply recorded chromatographic logP for Cc1nn(C)c(F)c1C(=O)Nc1ccccc1C(C)CC(C)C (stereo not shown) here.
(A) 3.26

(Q) Give the reported value of chromatographic logP for this record: CCC(C)CC(C)c1ccccc1NC(=O)c1c(C)nn(C)c1F (stereo not shown)
(A) 3.67

(Q) Given CCCCC(c1ccccc1NC(=O)c1c(C)nn(C)c1F)C(C)C (stereo not shown) , respond with its chromatographic logP.
(A) 4.24

(Q) Return chromatographic logP (reported value) for this molecule: C/C=C(\CC)c1ccccc1NC(=O)c1c(C)nn(C)c1F
(A) 3.45

(Q) Tell me measured chromatographic logP for CCCC(C)c1ccccc1NC(=O)c1c(C)nn(C)c1F (stereo not shown) please.
(A) 3.01
